molecular target: urokinase plasminogen activator receptor (uPAR) (Homo sapiens, UniProt Q03405); assay: binding affinity of Re complexes of the peptides for uPAR; conditions: isostructural to the Tc analogues
Sequence (Q03405 23-305): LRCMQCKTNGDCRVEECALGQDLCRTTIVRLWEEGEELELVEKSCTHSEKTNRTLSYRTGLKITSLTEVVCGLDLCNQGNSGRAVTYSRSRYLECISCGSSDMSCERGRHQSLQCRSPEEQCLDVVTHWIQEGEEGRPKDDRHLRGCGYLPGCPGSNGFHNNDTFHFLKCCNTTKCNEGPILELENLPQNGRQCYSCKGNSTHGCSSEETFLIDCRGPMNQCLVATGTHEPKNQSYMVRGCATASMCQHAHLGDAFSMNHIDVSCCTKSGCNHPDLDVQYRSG
REPORTED_PROPERTY: pKi
Please report pKi as the negative decimal logarithm of the molar concentration, giving only the number.

The reported value for D-Cha-F-s-r-Y-L-W-S-SAACII [L2] in terms of pKi is 9.41

The reported value for SAACII-S-G-S-G-D-Cha-F-s-r-Y-L-W-S [L1] in terms of pKi is 8.86
